These entries and their values trace back to paper PMC2363406.

# assayComment: Clinical plasma pharmacokinetics of paclitaxel and its metabolites (HPLC, non-compartmental analysis)
# condition: human, plasma, iv, 80 mg, Paclitaxel Half-life, schedule 1; paclitaxel 80 mg m-2 3-h i.v.; course 1; patients 3, 6, 9 in order
property: half-life (h)
Kindly answer with a numeric value in h, unit omitted.

Please fill in: half-life reported for CC(=O)O[C@H]1C(=O)[C@@]2(C)[C@H]([C@H](OC(=O)c3ccccc3)[C@]3(O)C[C@H](OC(=O)[C@H](O)[C@@H](NC(=O)c4ccccc4)c4ccccc4)C(C)=C1C3(C)C)[C@]1(OC(C)=O)CO[C@@H]1C[C@@H]2O [paclitaxel] = 7.02
